- procedureSummary: yeast display, Sf9 membrane polyspecificity reagent, FACS + sequencing; frameworks hold sequencing errors
assayReadout: polyreactivity (PSR sort gate)

Record excerpt, results attached:
INSERT INTO results (sequenceinput, assayreadout, measurement) VALUES
  ('QVQLHESGGGLVQAGGSLRLSCAASGTITDSGLMGWYRQAPGKERELVAGISSGGITNYADSVKGRFTISRDNAKNTVYLQMNSLKPEDTAVYWGQGTQVTVSS', 'polyreactivity (PSR sort gate)', 'low polyreactivity'),
  ('QVQLVESGGGLVQAGGSLRLSCAASGIIFSFYAMGWYRQAPGKERELVADITLSGGRTYYADSVKGRFTISRDNAKNTVYLQMNSLKPEDTAVYYCNADTYERGDYWGQGTQVTVSS', 'polyreactivity (PSR sort gate)', 'high polyreactivity'),
  ('QVQLVESGGGLVQAGGSLRLSCAASGIIFNTYVMGWYRQAPGKERELVAAISRRGGSTYYADSVKGRFTISRDNAKNTVYLQMNSLKPEDTAVYYCAADVLYQQAGSYYWGQGTQVTVSS', 'polyreactivity (PSR sort gate)', 'high polyreactivity'),
  ('QVQLVESGGGLVQAGGSLRLSCAASGRTFTFKAMGWYRQAPGKERELVAAMTSTGSTSYADSVKGRFTISRDNAKNTVYLQMNSLKPEDTAVYYCAKGYVIPYVHHVRPYGGEYLGQGTQVTVSS', 'polyreactivity (PSR sort gate)', 'low polyreactivity'),
  ('QVQLVESGRGLVQAGGSLRLSCAASGSTFGRYVMGWYRQAPGKERELVAAISKNAGSTYYADSVKGRFTISRDNAKNTVYLQMNSLKPEDTAVYYCNRERRYRNDYWGQGTQVTVSS', 'polyreactivity (PSR sort gate)', 'high polyreactivity');

Query :: Can you share its polyreactivity (PSR sort gate)? I mean this sequence: `QVQHVESGGGLVQAGGSLRLSCAASGRIFSINVMGWYRHAPGKERELVAAISKLGGSTYYADSVKGRFTISRDNAKNTVYLQMNSLKPEDTAVYYCAARRHYTYGNGPSRGGQMDYWGQGTQVTVSS`
Result :: high polyreactivity

Query :: What measured polyreactivity (PSR sort gate) goes with `QVQLVDSGGGLVQAGGSLRLSCAASGFIFRYYAMGWYRQAPGTERELVAAISRSGGSTYYADSVKGRFTISRDNAKNTVYLQMYSLKPEDTAVYYCNRGDVIGRQYDSAYGYWGQGTQVTVSS` ?
Result :: high polyreactivity

Query :: Report polyreactivity (PSR sort gate) for `QVQLVESGGGLVQAGGSLRLSCAASGGTFAVNAMGWYRQAPGKEREFVAAISSRGSTSYADSVKGRFTISRDNAKNTVYLQMNSLKPEDTAVYYCAKRQGYWFDYWGQGTQVTVSS` please.
Result :: high polyreactivity

Query :: Give the measured polyreactivity (PSR sort gate) of `QVQLVESGGGLVQAGGSLRLSCAASGFTFYRNAMGWYRHAPGTERELVAAISWSGDSTYYADSVKGRFTISRDNAKNTVYLQMNSLKPEDTAVYYCAKERYFYYPWVTTYTSNYWGQGTQVTVSS` .
Result :: low polyreactivity

Query :: Give its polyreactivity (PSR sort gate) value. Item: `QVQLVESGGGLVQAGGSLRLSCAASGRIFYSNTMGWYRQAPGKERELVARIDTGGGSTYADSVKGRFTISRDNAKNTVYLQMNSLKPEDTAVYYCAALKFEAWAGEDYWGQGTQVTVSS`
Result :: low polyreactivity

Query :: Sample `QVQLVESGGGLVQAGGSLRLSCAASGSIFDVNAMGCARQAPGNERELVAGISWSGGSTYYADSVKGRFTISRDNAKNTVYLQMNSLKPEDTAVYYCNAEGPIYFYFYRGMDYWGQGTQVTVSS` — what was its polyreactivity (PSR sort gate)?
Result :: low polyreactivity

---

- procedureSummary: yeast display, Sf9 membrane polyspecificity reagent, FACS + sequencing; frameworks hold sequencing errors
assayReadout: polyreactivity (PSR sort gate)

# annotated cases, reported polyreactivity (PSR sort gate) shown
INSERT INTO assay_data (sequenceinput, measurement) VALUES
  ('QVQLVESGVGLVQAGGSLRLSCAASGLTFATNAMGWYRQAPGKERELVAAITGSGGSTNYADSVKGRFTISRDNAKNTVYLQMNSLKPEDTAVYYCAADLLWEPSRGYRGDYWGQGTQVTVSS', 'low polyreactivity'),
  ('QVQLVESGGGLVQAGGSLRLSCAASGRIFYSYAMGWYRQAPGKERELVAAINSGDRTNYADSVKGRFTISRDNAKNTVYLQMNSLKPEDTAVYYCATDDYPWRRHPWYAGYDSWGQGTQVTVSS', 'low polyreactivity'),
  ('QVQLVESGGGLVQAGGSLRLSCAASGFTFYFYAMGWYRQAPGKERELVAAISRGGSTTYADSVKGRFTISRDNAKNTVYLQMNSLKPEDTAVYYCAKDRRRWYYTRDYWGQGTQVTVSS', 'low polyreactivity'),
  ('QVQLVESGGGLVQAGGSLRLICAASGFIITRNAMVWYRPAPGKERELGAVISYGGGSTYYADSVKGRFTISRDNAKNTVYLQMNSLKPEDTAVYYCAADPTWRYYYHYTYYYWGQGTQVTVSS', 'high polyreactivity'),
  ('QVQLVESGGGLVQAGGSLRLSCAASGRTFGRYAMGGYRQAPGKERELVAAINSGGSTYYADSVKGRFTISRDNAKNTVYLQMNSLKPEDTAVYYCAADWYYWGFIFDYWGQGTQVTVSS', 'high polyreactivity');

Query :: What measured polyreactivity (PSR sort gate) goes with `QVQLVESGGGLVQAGGSLRLSCAASGRIFSRYTMGWYRQAPGKERELVAGITRGGGSTYYADSVKGRFTISRDNAKNTVYLQMNSLKPEDTAVYYCAATFAYHDGDYWGQGTQVTVSS` ?
Result :: low polyreactivity

Query :: Give the measured polyreactivity (PSR sort gate) of `QVQLVESGGGLVQAGGSLRLSCPASGRTFGIYAMGWYRQAHGKERELVAAITWSGDSTYYADSVKGRFTISRDNAKNTVYLQMNSLKPEDTAVYYCAADYVGVTSVRYDYWGQGTQVTVSS` .
Result :: low polyreactivity

Query :: So what's the measured polyreactivity (PSR sort gate) for this one? `QVQLVESGGGLVQAGGSLRLSCAASGRIFGGNAMGWYRQAPGKERELVAAITWGGSTNYADSVKGRFTISRDNAKNTVYLQMNRLKPEDTAVYYCNADPVRDTYWHPETQQWYGYWGQGTQVTVSS`
Result :: low polyreactivity

Query :: GET /values?readout=polyreactivity (PSR sort gate)&item= `QVQLVESGGGLVQAGGSLRLSCAASGSIFGSYAMGWYRQAPGKERELVAAISSSGGSTYYADSVKGRFTISRVNAKNTVYFQMNSLKPEDTAVYYCNKYVRYGDGYWGQGTQVTVSS`
Result :: high polyreactivity

Query :: Requested read-out: polyreactivity (PSR sort gate). Entry: `QVQLEESGGGLVQAGGSLRLSCAASGRIFGINALGWYRQAPGQERALVAAISRSGSRTYYADSVKGRFTISRDNAMNTVYLQMNSLKPEDTALYYCNARHQRFYAQPGDYWGQGTQVTVSS`
Result :: high polyreactivity

Query :: Suppose we examine the sequence `QVQLVESGGGLVQAGGSLRLSCAACGRTFVSYAMGWYRQAPGKERELVAAITNAGSTYYADSVKGRFTISRDNAKNTVYLQMNSLKPEDTAVYYCAATYWDYWGYGYDYWGQGTQVTVSS` ; what polyreactivity (PSR sort gate) value has been reported?
Result :: high polyreactivity

Query :: Endpoint output: polyreactivity (PSR sort gate) of `QVQLVESGGGLVQAGGSLRLSCAASGRILWGNTMGWYRQAPGKERELVAAISWNGGGTYYADSVKGRFTISRDNAKNTVYLQMNSLKPEDTAVYYCATRYTYSTDTGYDYWGQGTQVTVSS` . Value?
Result :: low polyreactivity

---

- procedureSummary: yeast display, Sf9 membrane polyspecificity reagent, FACS + sequencing; frameworks hold sequencing errors
assayReadout: polyreactivity (PSR sort gate)

Reference set (4 entries):
INSERT INTO assay_data (sequenceinput, assayreadout, measurement) VALUES
  ('QVQLVESGGGLVQAGGSLRLSCAASGFIFRYNTMGWYRQAPGKERELVAAISVSGARTYYADSVKGRFTISRDNAKNTVYLQMNSLKPEDTAVYYCNRRYPFYSRYNNDYWGQGTQVTVSS', 'polyreactivity (PSR sort gate)', 'high polyreactivity'),
  ('QVQLVESGGGLVQAGGSLRLSCAASGRTFSGNALGWSTHAPGKERELVAAITSSGGSTYYADSVKGRFTISRENAKNTVYLQMNSLKPEDTAVYYCNTDPQGRTVVYGGDDYWGQGTQVTVSS', 'polyreactivity (PSR sort gate)', 'low polyreactivity'),
  ('QVQLVESGGGLVQAGGSLRLSCAASGFIFYRYAMGWYRQAPGKERELVAAISSSGGSTYYADSVKGRFTISRDNAKNTVYLQMNSLKPEDTAVYYCAAEPSGKRSKFYYWGQGTQVTVSS', 'polyreactivity (PSR sort gate)', 'high polyreactivity'),
  ('QVQLVESGAGLVQAGGSLRLSCAASGSTFRSNAMGWYRPAPGKEREFVASITSRGGPTYYADSVKGRFTISRDNAKNTVYLQMKSLKPEDTAVYYCASARSYLTYFYHYDYWGQGTQVTVSS', 'polyreactivity (PSR sort gate)', 'low polyreactivity');

Query :: Name the recorded polyreactivity (PSR sort gate) for `QVQLVESGGGLVQAGGSLRLSCAASGNIFANAMGWYRQAPGKERELVAAISRSGGSTYYADSVKGRFTISRDNAKNTVYLQMNSLKPEDTAVYYCAARTTRGPTFGYWGQGTQVTVSS` .
Result :: high polyreactivity

Hey, just so you know, these numbers are from the nanobody polyreactivity screen of Harvey et al. (2022).
